Catalogue of hepatic extraction ratio values
Test: Stability in rat liver microsomes assessed as extraction ratio
Assay type: ADME, Microsome
Conditions: read-out: ERH
Please respond with just the number, no unit label.

# count of solved cases: 5
Cc1ccc(-c2ncccn2)c(C(=O)N2[C@@H]3CC[C@H]2[C@H](COc2ccccn2)C3)n1	0.82
O=C(c1ccccc1-n1nccn1)N1[C@@H]2CC[C@H]1[C@H](Nc1cnc(C(F)(F)F)cn1)C2	0.31
O=C(c1cc(F)ccc1-c1ncccn1)N1C2CCC1C(COc1ccc(F)cn1)C2 (racemic)	0.76
Cc1ccc(-c2ncccn2)c(C(=O)N2C3CCC2C(COc2ccc(F)cn2)C3)c1 (racemic)	0.89
O=C(c1cccc(F)c1-c1ncccn1)N1[C@@H]2CC[C@H]1[C@H](Nc1cnc(C(F)(F)F)cn1)C2	0.31

hepatic extraction ratio for O=C(c1cc(F)ccc1-n1nccn1)N1C2CCC1C(COc1ccc(F)cn1)C2 (racemic) ? 0.8

hepatic extraction ratio for `O=C(c1ccc(F)cc1-c1ncccn1)N1[C@@H]2CC[C@H]1[C@H](Nc1cnc(C(F)(F)F)cn1)C2` ? 0.76

###

Assay: Cmax in dog at 0.5 mg/kg, iv and […], po
Assay type: ADME, organism-based, Canis lupus familiaris
Parameters: dose 2.5 mg/kg
Conditions: in vivo
PROPERTY_MEASURED: Cmax (ng/mL)
Answer in ng/mL, number only, no unit symbol.

Cmax for `O=C(c1cccc(F)c1-c1ncccn1)N1[C@@H]2CC[C@H]1[C@H](Nc1cnc(C(F)(F)F)cn1)C2` ? 2240

###

Biological target: Orexin/Hypocretin receptor type 1 (Homo sapiens)
Sequence (O43613 whole entry): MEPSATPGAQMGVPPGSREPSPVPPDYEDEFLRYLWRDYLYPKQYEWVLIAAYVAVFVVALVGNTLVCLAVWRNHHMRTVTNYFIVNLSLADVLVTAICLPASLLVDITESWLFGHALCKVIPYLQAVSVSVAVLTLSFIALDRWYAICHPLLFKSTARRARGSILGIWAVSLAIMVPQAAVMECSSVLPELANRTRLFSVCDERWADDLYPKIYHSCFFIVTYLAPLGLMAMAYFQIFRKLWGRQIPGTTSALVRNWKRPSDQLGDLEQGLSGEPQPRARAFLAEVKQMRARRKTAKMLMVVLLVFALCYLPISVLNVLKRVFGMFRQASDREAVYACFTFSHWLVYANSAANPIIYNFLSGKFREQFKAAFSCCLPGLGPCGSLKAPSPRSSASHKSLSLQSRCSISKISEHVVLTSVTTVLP
Assay: Binding affinity to human […]
pKi: −log10 of the molar value.
Cut-off 7 on pKi, inclusive. At or above means Criterion met; below means Criterion not met.

Would you please look over these solved cases?
O=C(c1ccccc1-c1ncccn1)N1[C@@H]2CC[C@H]1[C@H](Nc1cnc(C(F)(F)F)cn1)C2	Criterion met
O=C(c1cccc(F)c1-c1ncccn1)N1[C@@H]2CC[C@H]1[C@H](Nc1ncc(C(F)(F)F)cc1Cl)C2	Criterion met
Cc1ccc(-c2ncccn2)c(C(=O)N2[C@@H]3CC[C@H]2[C@H](COc2ccccn2)C3)n1	Criterion met
O=C(c1ccccc1-n1nccn1)N1C2CCC1C(Nc1ncc(C(F)(F)F)cn1)C2 (racemic)	Criterion not met

Is reported pKi greater than or equal to 7 here: O=C(c1cc(F)ccc1-c1ncccn1)N1C2CCC1C(COc1ccc(F)cn1)C2 (racemic) Criterion met

Is reported pKi greater than or equal to 7 here: `O=C(c1cccc(F)c1-c1ncccn1)N1[C@@H]2CC[C@H]1[C@H](Nc1cnc(C(F)(F)F)cn1)C2` Criterion met

Is reported pKi greater than or equal to 7 here: Cc1ccc(-n2nccn2)c(C(=O)N2C3CCC2C(COc2ccc(C(F)(F)F)cn2)C3)n1 (racemic) Criterion not met

Is reported pKi greater than or equal to 7 here: Cc1ccc(-c2ncccn2)c(C(=O)N2C3CCC2C(COc2ccc(F)cn2)C3)c1 (racemic) Criterion met

Is reported pKi greater than or equal to 7 here: `O=C(c1cccc(F)c1-c1ncccn1)N1[C@@H]2CC[C@H]1[C@H](Nc1ncc(C(F)(F)F)cc1F)C2` Criterion met

###

Experiment: Cmax in rat assessed as NOAEL at 200 mg/kg/day, po measured after immediately administered
Type: ADME, organism-based
Set-up: route oral, dose 200 mg/kg/day, time 13 day
Conditions: in vivo
PROPERTY_MEASURED: Cmax
// return the numeric value with its unit appended

Cmax for `O=C(c1cccc(F)c1-c1ncccn1)N1[C@@H]2CC[C@H]1[C@H](Nc1cnc(C(F)(F)F)cn1)C2` ? 30900 ng/mL

###

Assay: Dissociation constant, pKa of the compound
Assay type: physicochemical
PROPERTY_MEASURED: pKa

pKa for `O=C(c1cccc(F)c1-c1ncccn1)N1[C@@H]2CC[C@H]1[C@H](Nc1cnc(C(F)(F)F)cn1)C2` ? < 2

###

Assay: AUC (0 to 24 hrs) in rat assessed as NOAEL at 200 mg/kg/day, po administered as repeated dose for 13 days
Type: ADME, organism-based
Design: route oral, time 13 day, dose 200 mg/kg/day
Conditions: in vivo
PROPERTY_MEASURED: AUC at 312 h (ng·h/mL)
Answer in ng·h/mL, number only, no unit symbol.

AUC at 312 h for `O=C(c1cccc(F)c1-c1ncccn1)N1[C@@H]2CC[C@H]1[C@H](Nc1cnc(C(F)(F)F)cn1)C2` ? 36200

###

Assay: Ex vivo receptor occupancy at OX1R in Sprague-Dawley rat brain tenia tecta using [3H]SB-674042 labelling at 10 mg/kg, po measured after 2 hrs by autoradiography
Assay type: functional
In plain terms, low Activity, meaning strictly below 70%, gives yes, and everything else gives no.

Would you please look over these solved cases?
O=C(c1cccc(F)c1-c1ncccn1)N1[C@@H]2CC[C@H]1[C@H](Nc1cnc(C(F)(F)F)cn1)C2	yes
O=C(c1ccccc1-c1ncccn1)N1[C@@H]2CC[C@H]1[C@H](Nc1cnc(C(F)(F)F)cn1)C2	no

Determine if `O=C(c1c(F)cccc1-c1ncccn1)N1[C@@H]2CC[C@H]1[C@H](Nc1cnc(C(F)(F)F)cn1)C2` shows Activity strictly lower than 70%. yes

###

Assay: Cmax in rat at 1 mg/kg, iv and 5 mg/kg, po
Format: ADME, organism-based
Parameters: dose 5 mg/kg
Settings: in vivo
PROPERTY_MEASURED: Cmax (ng/mL)
Answer in ng/mL, number only, no unit symbol.

Cmax for `O=C(c1cccc(F)c1-c1ncccn1)N1[C@@H]2CC[C@H]1[C@H](Nc1cnc(C(F)(F)F)cn1)C2` ? 1370

###

Biological target: UniProtKB O43614
Sequence (O43614 whole entry): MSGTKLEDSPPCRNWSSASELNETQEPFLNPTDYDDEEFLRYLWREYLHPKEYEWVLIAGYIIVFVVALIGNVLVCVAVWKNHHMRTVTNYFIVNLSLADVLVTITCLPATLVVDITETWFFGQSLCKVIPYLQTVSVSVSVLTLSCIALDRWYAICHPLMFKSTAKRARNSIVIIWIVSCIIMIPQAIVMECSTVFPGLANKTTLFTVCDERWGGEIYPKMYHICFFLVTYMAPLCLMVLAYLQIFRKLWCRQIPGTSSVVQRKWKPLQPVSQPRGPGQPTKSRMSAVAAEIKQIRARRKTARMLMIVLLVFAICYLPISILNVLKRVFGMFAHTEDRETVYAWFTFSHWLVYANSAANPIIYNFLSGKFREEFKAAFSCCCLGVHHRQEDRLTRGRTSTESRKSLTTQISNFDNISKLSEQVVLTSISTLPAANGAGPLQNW
PROPERTY_MEASURED: log10 Ki (log10 of the value in nM)
Log scale reminder: Ki in nM, then log10 taken.

# count of solved cases: 3
O=C(c1ccccc1-n1nccn1)N1C2CCC1C(Nc1cnc(C(F)(F)F)cn1)C2 (racemic)	3.10
Cc1ccc(-n2nccn2)c(C(=O)N2C3CCC2C(COc2ccc(F)cn2)C3)c1 (racemic)	1.86
O=C(c1ccccc1-c1ncccn1)N1[C@@H]2CC[C@H]1[C@H](Nc1cnc(C(F)(F)F)cn1)C2	2.72

Observed log10 Ki on UniProtKB O43614 for O=C(c1ccccc1-n1nccn1)N1C2CCC1C(Nc1ccc(C(F)(F)F)cn1)C2 (racemic) , please. 3.15

Observed log10 Ki on UniProtKB O43614 for Cc1ccc(-c2ncccn2)c(C(=O)N2C3CCC2C(COc2ccc(F)cn2)C3)c1 (racemic) , please. 1.60

Observed log10 Ki on UniProtKB O43614 for `O=C(c1c(F)cccc1-c1ncccn1)N1[C@@H]2CC[C@H]1[C@H](Nc1cnc(C(F)(F)F)cn1)C2` , please. 2.75

###

Parameter 'readout' = pKi; parameter 'system' = Orexin/Hypocretin receptor type 1 (Homo sapiens).
Remember the convention: pKi equals -log10 of concentration in molar.

Cc1ccc(-n2nccn2)c(C(=O)N2C3CCC2C(Nc2ccc(C(F)(F)F)cn2)C3)n1 (racemic)	7.12
O=C(c1ccccc1-n1nccn1)N1C2CCC1C(Oc1ccc(C(F)(F)F)cn1)C2 (racemic)	6.89
O=C(c1cccc(F)c1-c1ncccn1)N1C2CCC1C(Oc1cnc(C(F)(F)F)cn1)C2 (racemic)	7.00

Observed pKi on Orexin/Hypocretin receptor type 1 (Homo sapiens) for `O=C(c1cc(F)ccc1-c1ncccn1)N1[C@@H]2CC[C@H]1[C@H](Nc1cnc(C(F)(F)F)cn1)C2` , please. 7.19

Observed pKi on Orexin/Hypocretin receptor type 1 (Homo sapiens) for O=C(c1ccccc1-n1nccn1)N1C2CCC1C(Nc1cnc(C(F)(F)F)cn1)C2 (racemic) , please. 7.21

Observed pKi on Orexin/Hypocretin receptor type 1 (Homo sapiens) for `O=C(c1ccc(F)cc1-c1ncccn1)N1[C@@H]2CC[C@H]1[C@H](Nc1cnc(C(F)(F)F)cn1)C2` , please. 7.21

Observed pKi on Orexin/Hypocretin receptor type 1 (Homo sapiens) for O=C(c1ccccc1-n1nccn1)N1C2CCC1C(Nc1ccc(Cl)cn1)C2 (racemic) , please. 7.02
